Test system: SK-MEL-2 melanoma
Assay: NCI tumour cell line growth inhibition, 48 h
endpoint.name: TGI

Requested field: TGI. Item: O=C(Nc1ccccc1SC(/C=C/NNC1=NC(c2ccccc2)C(c2ccccc2)=NN1)c1ccccc1)c1ccc(Cl)cc1Cl (stereo unspecified)
45.6 µM

Repeat with CCC1c2[nH]c3ccccc3c2C[C@H]2C(=O)NC(Cc3c[nH]c4ccccc34)C(=O)N12 (stereo partly specified)
38.6 µM

Note, next up: CC1CC(c2ccccc2)Nc2nc3ccccc3n21 (stereo unspecified)
> 100 µM

How about this compound: `CCOC(=O)c1ccc(O)cc1`
> 100 µM

Try this compound next: `O=C(NCCn1ccnn1)Nc1ccccc1`
> 100 µM

# repeat for `CCCCCCCCn1ccc2cc(NC(=O)Cn3cc(CN4CCN(CC)CC4)nn3)ccc21`
3.89 µM

What about this compound? `COc1ccc(N)c(C(=O)CCNC(C)=O)c1`
> 100 µM

Queued: `Cc1ccc(C(=O)N/N=C(\N=Nc2cccc(C)c2)c2ccc(N(CCC#N)CCC#N)cc2C)cc1`
> 100 µM

What about `COc1ccc(C2=Cc3nc2c(-c2ccccc2)c2ccc([nH]2)c(-c2ccccc2)c2nc(c(-c4ccccc4)c4ccc([nH]4)c3-c3ccccc3)C=C2)cc1` ?
> 100 µM

Try this compound too: `COc1ccc(/C=C/C(=O)Nc2cc(/C=C\c3cc(OC)c(OC)c(OC)c3)cc(OC)c2OC)cc1OC`
9.4 µM

Request: CCOC(=O)C1=C(C)N2CCOC2(C)C(C(=O)OC)C1c1cccc(Cl)c1 (stereo unspecified)
> 100 µM
